Experiment: viability gain of MRP-1-high H69AR cells under doxorubicin, pilot screen, MRP-1 activator project, CellTiter-Glo, duplicate (AID 807);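 also: compound pretreatment 18-22 h then 72 h combined with doxorubicin; 0% = doxorubicin alone and 100% = vehicle without doxorubicin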
Conditions: H69AR viability with doxorubicin, CellTiter-Glo luminescence; at 10 µM; stronger effect = higher value
Active and inactive are the calls of the source.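 The calls were made as follows: active = viability increase at or above a cutoff of the median across tested compounds plus 3 SD (cut at about 8.5% in these data, passing the limit was not always enough); inconclusive = some gains above the cutoff, reason not given; inactive = the rest.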
READOUT: viability increase

Before answering, review these 8 worked examples.
>>> observed("O=C(C1CC(c2ccc(F)cc2)=NO1)N1CCN(c2ccccc2)CC1 (stereo not drawn)")
"-0.13% (inactive)"
>>> observed("O=S(=O)(NCC(c1cccnc1)N1CCN(Cc2ccccc2)CC1)c1ccccc1 (stereo not drawn)")
"-2.02% (inactive)"
>>> observed("COc1ccc(C)cc1S(=O)(=O)NC1CCCCC1")
"-0.23% (inactive)"
>>> observed("Cc1ccc(Cn2nnc3c(=O)n(CC(=O)c4ccccc4)cnc32)cc1")
"-2.92% (inactive)"
>>> observed("Cn1nc(-c2ccc(Cl)cc2)c2cc(C(=O)N3CCOCC3)sc21")
"-5.6% (inactive)"
>>> observed("c1ccc(-c2cnnc(N3CCCCC3)n2)cc1")
"-1.75% (inactive)"
>>> observed("CC(C)Oc1ccc(N2CC(C(=O)Nc3ccc4c(c3)OCO4)CC2=O)cc1 (stereo not drawn)")
"-0.37% (inactive)"
>>> observed("CCOC(=O)Cc1csc(NC(=O)c2c(-c3ccccc3)noc2C)n1")
"4.11% (inactive)"

For each entry beneath this line, provide reported viability increase.
1. COc1ccc(OC)c(CCNC(=O)CN2C(=O)CC(C)(C)S(=O)(=O)c3ccccc32)c1
2. Cc1nn(C(=O)c2cccs2)c(N)c1-c1ccccc1
3. CCn1cc(C2=NC(c3ccccc3)CO2)c2ccccc21 (stereo not drawn)

Response line:
1. -2.6% (inactive)
2. 0.4% (inactive)
3. -4.95% (inactive)

For each entry beneath this line, provide reported viability increase.
1. COc1ccc(N(CC(=O)NCc2cccs2)S(=O)(=O)c2c(C)nn(C)c2C)cc1
2. O=C(CCc1nc2ccccc2[nH]1)NCc1ccc2c(c1)OCO2
3. COc1ccc(OC)c(CN2C(=O)c3ccccc3C2C(=O)NCc2cccnc2)c1 (stereo not drawn)
4. O=C1c2ccccc2C(O)N1Cc1ccc2c(c1)OCO2 (stereo not drawn)
5. c1ccc(CNc2ncnc3c2ncn3C2CCCCO2)cc1 (stereo not drawn)
6. CCOC(=O)CCn1cc(F)c(=O)n(Cc2ccccc2)c1=O
7. COc1ccc(OC)c(NC(=O)c2nnn(CCc3ccccc3)c2N)c1
8. COC(=O)c1ccc(-c2nc(-c3cccs3)no2)cc1

Response line:
-3.49% (inactive)
-2.13% (inactive)
0.05% (inactive)
-0.74% (inactive)
-1.76% (inactive)
-0.3% (inactive)
-4.62% (inactive)
-5.21% (inactive)

For each entry beneath this line, provide reported viability increase.
1. COC(=O)c1ccsc1NC(=O)c1ccc(Cl)s1
2. CN(Cc1ccccc1)C(=O)c1ccc2c(c1)OCCO2
3. CCn1cc(C(=O)N2CC(C)CC(C)C2)c(=O)c2cc(S(=O)(=O)N(C)C)ccc21 (stereo not drawn)
4. CCCN(CCC)CCNC(=O)Cn1cnc2sc(C)c(S(=O)(=O)N3CCOCC3)c2c1=O

Response line:
["-6.51% (inactive)", "-0.29% (inactive)", "-0.18% (inactive)", "-2.63% (inactive)"]

###

Experiment: growth suppression of PTEN-deleted HCT116, pilot screen, cell-based, HCT116 clonal line, CellTiter-Glo (AID 824);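 also: 0% = 20 µM Hyamine control and 100% = vehicle cell control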
Details: 60 h, at 10 µM
Inconclusive results are not listed. The source made the active and inactive calls.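 How the source made its calls: active means viability at or below 27.92% in each of two runs, the all-compound median minus 4 SD; inconclusive means no clear call, values can overlap the other calls; inactive means the rest.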
Hello, when you answer, please use one of the following outcomes: active, inactive

Answered examples (6):
>>> assigned_category("O=C(COC(=O)c1cc2ccccc2o1)c1ccccc1")
"inactive"
>>> assigned_category("CC(=O)Nc1ccc(S(=O)(=O)n2cnc3cc(C)c(C)cc32)cc1")
"inactive"
>>> assigned_category("CC1CC(NC(=O)CCn2c(=O)oc3ccccc32)CC(C)(C)C1 (stereo unspecified)")
"inactive"
>>> assigned_category("O=C(CCn1c(=O)sc2ccccc21)NCc1ccccc1")
"inactive"
>>> assigned_category("CC(=O)Nc1ccc(S(=O)(=O)N2CCN(c3nc(NC4CCCC4)c4ccccc4n3)CC2)cc1")
"active"
>>> assigned_category("O=C(Nc1ccccc1)OCCOc1ccccc1")
"inactive"

Prompt line: Called result for CNc1oc(-c2ccccc2)nc1C#N
Response line: inactive

Prompt line: Called result for O=C(c1ccc(S(=O)(=O)N2CCOCC2)cc1)N1CCN(c2ccccc2)CC1
Response line: inactive

Prompt line: Called result for COc1ccc(C2C(C(N)=O)=C(C)Nc3nc(-c4ccccc4)nn32)cc1OC (stereo unspecified)
Response line: inactive

Prompt line: Called result for CS(=O)(=O)Nc1ccc2c3c(cccc13)CC2
Response line: inactive

Prompt line: Called result for COc1ccccc1NC(=O)c1c(NC(=O)c2ccco2)sc2c1CCC2
Response line: inactive

###

Test: growth suppression of beta-catenin knockout HCT116, pilot screen, human colon tumor cells (AID 823);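 also: 0% = wells killed by 20 µM Hyamine and 100% = untreated DMSO cell wells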
Conditions: CellTiter-Glo, 60 h, at 10 µM, stronger effect = lower value
Records with an inconclusive call do not appear.
READOUT: viability (%)
Numbers only, in %.

Before answering, review these 6 worked examples.
>>> observed("COC(=O)C1=C(C)N2C(=O)CSC2=NC1c1ccc2c(c1)OCO2 (stereo not given)")
93.3
>>> observed("CCCC1(C(=O)O)NC(c2ccccc2O)C2C(=O)N(c3cccc(Cl)c3)C(=O)C21 (stereo not given)")
107
>>> observed("CC1Cc2ccccc2N1C(=O)C1CCCN(S(=O)(=O)c2cccc3cccnc23)C1 (stereo not given)")
67.9
>>> observed("COc1ccc(Cl)cc1C(=O)N(Cc1nc(-c2cccc(C)c2)no1)C(C)C")
58.8
>>> observed("O=C(c1ccco1)N1CCN(C(=O)c2oc(=O)c3ccccc3c2-c2ccccc2)CC1")
105
>>> observed("CCC(C)Sc1nnc(Cc2cc(=O)[nH]c(=O)[nH]2)n1-c1ccc(OC)cc1 (stereo not given)")
104

For each entry beneath this line, provide reported viability.
1. C=CCSc1nc2c(c(=O)[nH]c(=O)n2C)n1Cc1ccc(C)cc1
2. CCC(=O)Nc1nc2ccc3nc(C)sc3c2s1

Response line:
1: 90.1; 2: 75.3

For each entry beneath this line, provide reported viability.
1. Cc1ccc(-c2cc(C(F)(F)F)n3ncc(C(=O)NCc4ccco4)c3n2)cc1
2. COc1ccc(Cl)cc1NC(=O)c1nc2nc(C)cc(C(F)F)n2n1

Response line:
1. 74
2. 94.4

###

Assay: inhibitors of the yeast RAM network, pilot screen, dse1pr::URA3 reporter, 5-FOA selection (AID 869);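 also: 0% = DMSO wells with no growth and 100% = 10 µM 1-NA-PP1 with full growth; RAM network block rescues cells from 5-FOA so hits raise OD615 growth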
Details: S. cerevisiae dse1pr::URA3 5-FOA growth, OD615, 2 d; at 10 µM; stronger effect = higher value; strain carries analog-sensitive mutant Cbk1 kinase
READOUT: inhibition (%)
One number for each entry, in %.

>>> observed("Cc1cccc(N(C(=O)Nc2ccccc2)C2=NCC(C)S2)c1 (stereo unspecified)")
-0.8
>>> observed("COc1ccc(Cl)cc1NC(=O)Cn1c(=O)n2nc(C)nc2c2ccccc21")
0.175

For each entry beneath this line, provide reported inhibition.
1. Cc1cccc(C(=O)N2CCN(Cc3ccc4c(c3)OCO4)CC2)c1
2. O=C(Nc1nc(-c2ccccn2)cs1)c1ccc(Cl)s1
3. CCC1CC(C)(C(=O)Nc2ccc(S(N)(=O)=O)cc2)OC1=O (stereo unspecified)
4. Cc1nn(-c2ccccc2)c(C)c1C(=O)OCC(=O)Nc1ccc2c(c1)OCO2
5. COc1cc(NC(=O)CN2CC(c3ccccc3)CC2=O)cc(OC)c1 (stereo unspecified)
6. COc1ccc(Cc2nc(-c3ccc(-n4cccc4)cc3)no2)cc1OC
7. O=C(Nc1ccccc1C(=O)N1CCN(Cc2ccccc2)CC1)c1ccccn1

Response line:
1. -0.065
2. -1.18
3. 1.36
4. 3.68
5. 1.27
6. 4.33
7. -0.045

For each entry beneath this line, provide reported inhibition.
1. O=C(CCn1c(=O)oc2ccccc21)NCCCN1CCCC1=O
2. CC1CCN(c2nc3c(c(=O)n(C)c(=O)n3C)n2CCSc2ncccn2)CC1

Response line:
1: 1.01; 2: 1.61

###

Experiment: growth suppression of PTEN-deleted HCT116, pilot screen, cell-based, HCT116 clonal line, CellTiter-Glo (AID 824);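 also: 0% = 20 µM Hyamine control and 100% = vehicle cell control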
Settings: 60 h, at 10 µM, stronger effect = lower value
Results filed as inconclusive are left out.
Task for the reader: assign each of the following compounds its reported viability.
Give bare numbers, in %.

>>> observed("COc1ccc(NC(=O)C2c3cc(OC)c(OC)cc3C(=O)N(C)C2c2cccnc2)cc1OC (stereo unspecified)")
95.5
>>> observed("O=S(=O)(NCc1cccnc1)c1ccc(Cl)c(Cl)c1")
93.8
>>> observed("Cc1cc2cc(CCNC(=O)CC(C)(C)C)c(=O)[nH]c2cc1C")
98.7
>>> observed("COc1ccc(S(=O)(=O)Cc2ccc(C(=O)NCc3ccc(F)cc3)o2)cc1")
87.5
>>> observed("Cc1nc2c3ccccc3n(CC#N)c(=O)n2n1")
95.8
>>> observed("CCOc1ccc2nc(N3CCC(C(=O)N4CCN(C(=O)c5ccco5)CC4)CC3)sc2c1")
77.7
>>> observed("COc1ccc(C(=O)O)cc1Nc1cc(C)nc2ncnn12")
93
>>> observed("O=C(Cc1c(F)cccc1Cl)c1ccc(O)cc1O")
100

For each entry beneath this line, provide reported viability.
1. CCOCCCNC(=O)C(NC(=O)CC1NC(=O)NC1=O)c1ccc(Cl)cc1 (stereo unspecified)
2. O=C(O)C1C2C=CC(C2)C1C(=O)NCc1ccc2c(c1)OCO2 (stereo unspecified)
3. c1ccc(Sc2nc(N3CCCCC3)nc(N3CCCCC3)n2)nc1

Response line:
1. 96.1
2. 90.6
3. 86.5
